The measurements presented in this section are drawn from ChEMBL document CHEMBL1134774.

molecular target: Cholinesterase (Homo sapiens, UniProt P06276)
Sequence (P06276 whole entry): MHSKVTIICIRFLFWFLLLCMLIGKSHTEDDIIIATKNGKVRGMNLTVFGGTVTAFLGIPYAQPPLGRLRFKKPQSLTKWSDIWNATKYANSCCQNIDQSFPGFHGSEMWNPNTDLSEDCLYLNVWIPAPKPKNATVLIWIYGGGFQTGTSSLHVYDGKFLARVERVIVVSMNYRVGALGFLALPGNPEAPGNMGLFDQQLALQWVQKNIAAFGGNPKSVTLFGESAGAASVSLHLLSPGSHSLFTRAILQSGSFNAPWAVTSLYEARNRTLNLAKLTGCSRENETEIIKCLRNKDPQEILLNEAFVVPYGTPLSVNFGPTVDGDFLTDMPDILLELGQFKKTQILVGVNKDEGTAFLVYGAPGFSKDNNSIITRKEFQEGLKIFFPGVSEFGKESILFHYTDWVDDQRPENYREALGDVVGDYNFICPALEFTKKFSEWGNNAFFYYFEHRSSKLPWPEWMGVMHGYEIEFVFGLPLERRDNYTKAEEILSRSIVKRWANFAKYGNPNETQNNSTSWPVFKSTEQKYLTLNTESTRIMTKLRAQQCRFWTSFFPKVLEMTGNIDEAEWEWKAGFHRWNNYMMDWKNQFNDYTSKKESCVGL
assay_metric: IC50 (nM)
Answers are plain numbers, in nM.

Example compounds with recorded IC50:
c1ccc(CN2CCC(CCOc3ccc(-c4ccccc4)nn3)CC2)cc1: 1600
Cc1cc(=NCCC2CCN(Cc3ccccc3)CC2)[nH]nc1-c1ccccc1: 940

Sample c1ccc(CN2CCC(CCN=c3cc4c(n[nH]3)-c3ccccc3C4)CC2)cc1 , system: Cholinesterase (Homo sapiens, UniProt P06276). Its IC50 is 230

###

target: Choline O-acetyltransferase (Rattus norvegicus); assay: IC50 (hBuChE/hAChE) ratio of the compound
Assign labels as follows, please: Met for IC50 ratio below 5; Not met for IC50 ratio equal to or exceeding 5.

Take a look at these entries with their results.
Cc1cc(=NCCC2CCN(Cc3ccccc3)CC2)[nH]nc1-c1ccccc1: Not met
c1ccc(CN2CCC(CCN=c3cc4c(n[nH]3)-c3ccccc3C4)CC2)cc1: Met
CCc1cc(=NCCC2CCN(Cc3ccccc3)CC2)[nH]nc1-c1ccccc1: Not met

Kindly consider the entry below.
Ask | Hello, I'm reviewing records and need to know if IC50 ratio of c1ccc(CN2CCC(CCNc3cc4c(nn3)-c3ccccc3CC4)CC2)cc1 is below 5. Could you check?
Reply | Met
